Source: patent US10596270B2

Form field: AUC(0-t) (one value per entry).
assay: Pharmacokinetics of free drugs in Sprague-Dawley rats; assay type: in vivo, rat; conditions: rat, blood; female Sprague-Dawley rats, IV bolus, dose level 0.4 mg/kg; read-out: AUC0-last ± SE

{"molecule": "COc1cc2cc(c1Cl)N(C)C(=O)C[C@H](OC(=O)[C@H](C)N(C)C(=O)CCC(C)(C)S)[C@]1(C)O[C@H]1[C@H](C)[C@@H]1C[C@@](O)(NC(=O)O1)[C@H](OC)/C=C/C=C(/C)C2 [free drug (II)]", "result": "211 ng·h/mL"}

For the molecule shown here, CN[C@H](C(=O)N[C@H](C(=O)N(C)[C@H](/C=C(\C)C(=O)O)C(C)C)C(C)(C)C)C(C)(C)c1cccc(N)c1 [free drug (I)] , give the reported AUC(0-t).
23.9 ng·h/mL
